Conditions: siRNA; also: test system not given here
HELM strings list units from the 5' end as sugar, base in round brackets, then linkage (d deoxyribose, r ribose, m 2'-O-methyl, p phosphodiester). Strings are as the collection lists them, not checked against the first reports. ss, as = sense and antisense strand; [lna] = locked nucleic acid (LNA); [una] = unlocked nucleic acid; [s4r] = 4'-thioribose; [fl2r] = 2'-fluoro
target mRNA knockdown values for the substances below.
PROPERTY_MEASURED: target mRNA knockdown (%)

>>> test_value("RNA1{[fl2r](U)p.r(U)p.[fl2r](C)p.r(U)p.[fl2r](A)p.r(A)p.[fl2r](C)p.r(C)p.[fl2r](G)p.r(G)p.[fl2r](G)p.r(C)p.[fl2r](A)p.r(G)p.[fl2r](C)p.r(U)p.[fl2r](U)p.r(C)p.[fl2r](U)p.r(T)p.r(T)}|RNA2{r(A)p.r(G)p.r(A)p.r(A)p.r(G)p.r(C)p.r(U)p.r(G)p.r(C)p.r(C)p.r(C)p.r(G)p.r(G)p.r(U)p.r(U)p.r(A)p.r(G)p.r(A)p.r(A)p.r(T)p.r(T)}$$$RNA1{StrandType:ss}|RNA2{StrandType:as}$")
61
>>> test_value("RNA1{r(C)p.r(G)p.r(C)p.r(C)p.r(C)p.r(C)p.r(C)p.r(C)p.r(U)p.r(C)p.r(A)p.r(A)p.r(G)p.r(C)p.m(U)p.r(A)p.r(C)p.r(C)p.r(G)p.r(T)p.r(T)}|RNA2{r(C)p.r(G)p.r(G)p.m(U)p.r(A)p.r(G)p.r(C)p.r(U)p.r(U)p.r(G)p.r(A)p.r(G)p.r(G)p.r(G)p.r(G)p.r(G)p.r(G)p.r(C)p.r(G)p.r(T)p.r(T)}$$$RNA1{StrandType:ss}|RNA2{StrandType:as}$")
76
>>> test_value("RNA1{r(C)p.r(G)p.r(U)p.r(A)p.r(C)p.r(G)p.r(C)p.r(G)p.r(G)p.r(A)p.r(A)p.r(U)p.r(A)p.r(C)p.r(U)p.[s4r](U)p.[s4r](C)p.[s4r](G)p.[s4r](A)p.r(T)p.r(T)}|RNA2{[s4r](U)p.[s4r](C)p.[s4r](G)p.[s4r](A)p.r(A)p.r(G)p.r(U)p.r(A)p.r(U)p.r(U)p.r(C)p.r(C)p.r(G)p.r(C)p.r(G)p.r(U)p.r(A)p.r(C)p.r(G)p.r(T)p.r(T)}$$$RNA1{StrandType:ss}|RNA2{StrandType:as}$")
35.1
>>> test_value("RNA1{r(C)p.r(U)p.r(C)p.m(C)p.r(C)p.m(C)p.r(A)p.r(G)p.r(U)p.m(C)p.r(U)p.r(C)p.r(U)p.r(C)p.r(U)p.m(U)p.r(A)p.r(A)p.r(A)p.r(T)p.r(T)}|RNA2{r(U)p.r(U)p.m(U)p.r(A)p.r(A)p.r(G)p.r(A)p.r(G)p.r(A)p.r(G)p.r(A)p.r(C)p.m(U)p.r(G)p.r(G)p.r(G)p.r(G)p.r(A)p.r(G)p.r(T)p.r(T)}$$$RNA1{StrandType:ss}|RNA2{StrandType:as}$")
68
>>> test_value("RNA1{r(A)p.r(A)p.r(A)p.r(C)p.r(C)p.r(C)p.r(C)p.[fl2r](U)p.r(A)p.r(G)p.r(A)p.r(G)p.r(G)p.r(G)p.[fl2r](C)p.r(A)p.r(A)p.r(G)p.r(U)p.r(T)p.r(T)}|RNA2{r(A)p.r(C)p.r(U)p.r(U)p.r(G)p.r(C)p.r(C)p.r(C)p.r(U)p.r(C)p.r(U)p.r(A)p.r(G)p.r(G)p.r(G)p.r(G)p.r(U)p.r(U)p.r(U)p.r(T)p.r(T)}$$$RNA1{StrandType:ss}|RNA2{StrandType:as}$")
83
>>> test_value("RNA1{r(G)p.r(U)p.r(A)p.r(U)p.r(G)p.r(A)p.r(C)p.r(C)p.r(G)p.r(A)p.r(C)p.r(U)p.r(A)p.r(C)p.r(G)p.r(C)p.r(G)p.r(U)p.r(A)p.r(T)p.r(T)}|RNA2{r(U)p.r(U)p.r(C)p.r(A)p.[una](G)p.r(U)p.r(G)p.r(U)p.r(G)p.r(A)p.r(U)p.r(G)p.r(A)p.r(C)p.r(A)p.r(C)p.r(U)p.r(U)p.r(G)p.r(T)p.r(T)}$$$RNA1{StrandType:ss}|RNA2{StrandType:as}$")
92
>>> test_value("RNA1{r(C)p.r(U)p.r(U)p.r(A)p.r(C)p.r(G)p.r(C)p.r(U)p.r(G)p.r(A)p.r(G)p.r(U)p.r(A)p.r(C)p.r(U)p.r(U)p.r(C)p.r(G)p.r(A)p.[lna](T)p.[lna](T)}|RNA2{[lna](T)p.r(C)p.r(G)p.r(A)p.r(A)p.r(G)p.r(U)p.r(A)p.r(C)p.r(U)p.r(C)p.r(A)p.r(G)p.r(C)p.r(G)p.r(U)p.r(A)p.r(A)p.r(G)p.[lna](T)p.[lna](T)}$$$RNA1{StrandType:ss}|RNA2{StrandType:as}$")
27
>>> test_value("RNA1{r(G)p.m(C)p.r(A)p.r(G)p.r(C)p.r(A)p.r(C)p.r(G)p.r(A)p.r(C)p.r(U)p.r(U)p.r(C)p.r(U)p.r(U)p.r(C)p.r(A)p.r(A)p.r(G)p.r(U)p.r(U)}|RNA2{r(C)p.r(U)p.r(U)p.r(G)p.r(A)p.r(A)p.r(G)p.r(A)p.r(A)p.r(G)p.r(U)p.r(C)p.r(G)p.r(U)p.r(G)p.r(C)p.r(U)p.r(G)p.r(C)p.r(U)p.r(U)}$$$RNA1{StrandType:ss}|RNA2{StrandType:as}$")
71.7
>>> test_value("RNA1{r(G)p.[fl2r](C)p.r(A)p.r(G)p.[fl2r](C)p.r(A)p.[fl2r](C)p.r(G)p.r(A)p.[fl2r](C)p.[fl2r](U)p.[fl2r](U)p.[fl2r](C)p.[fl2r](U)p.[fl2r](U)p.[fl2r](C)p.r(A)p.r(A)p.r(G)p.r(T)p.r(T)}|RNA2{[fl2r](C)p.[fl2r](U)p.[fl2r](U)p.r(G)p.r(A)p.r(A)p.r(G)p.r(A)p.r(A)p.r(G)p.[fl2r](U)p.[fl2r](C)p.r(G)p.[fl2r](U)p.r(G)p.[fl2r](C)p.[fl2r](U)p.r(G)p.[fl2r](C)p.r(T)p.r(T)}$$$RNA1{StrandType:ss}|RNA2{StrandType:as}$")
83

====

Settings: siRNA
HELM strings list units from the 5' end as sugar, base in round brackets, then linkage (d deoxyribose, r ribose, m 2'-O-methyl, p phosphodiester). Strings are as the collection lists them, not checked against the first reports. ss, as = sense and antisense strand; [hna] = hexitol nucleic acid; [fl2r] = 2'-fluoro
PROPERTY_MEASURED: target mRNA knockdown (%)

>>> test_value("RNA1{m(G)p.r(C)p.m(U)p.r(U)p.m(U)p.r(A)p.m(A)p.r(G)p.m(G)p.r(A)p.m(A)p.r(C)p.m(U)p.r(G)p.m(G)p.r(A)p.m(A)p.r(G)p.m(G)p.r(T)p.r(T)}|RNA2{r(C)p.m(C)p.r(U)p.m(U)p.r(C)p.m(C)p.r(A)p.m(G)p.r(U)p.m(U)p.r(C)p.r(C)p.r(U)p.r(U)p.r(A)p.r(A)p.r(A)p.r(G)p.r(C)p.r(T)p.r(T)}$$$RNA1{StrandType:ss}|RNA2{StrandType:as}$")
25
>>> test_value("RNA1{m(U)p.r(A)p.m(G)p.r(C)p.m(C)p.r(A)p.m(G)p.r(A)p.m(G)p.r(C)p.m(C)p.r(A)p.m(A)p.r(A)p.r(G)p.m(A)p.r(A)p.r(G)p.r(C)p.r(T)p.r(T)}|RNA2{r(G)p.r(C)p.m(U)p.m(U)p.r(C)p.m(U)p.m(U)p.m(U)p.r(G)p.r(G)p.r(C)p.m(U)p.r(C)p.m(U)p.r(G)p.r(G)p.r(C)p.m(U)p.r(A)p.r(T)p.r(T)}$$$RNA1{StrandType:ss}|RNA2{StrandType:as}$")
75
>>> test_value("RNA1{[fl2r](C)p.r(C)p.[fl2r](G)p.r(A)p.[fl2r](A)p.r(G)p.[fl2r](A)p.r(C)p.[fl2r](G)p.r(A)p.[fl2r](A)p.r(G)p.[fl2r](C)p.r(U)p.[fl2r](A)p.r(U)p.[fl2r](G)p.r(A)p.[fl2r](A)p.r(T)p.r(T)}|RNA2{r(U)p.r(U)p.r(C)p.r(A)p.r(U)p.r(A)p.[fl2r](G)p.r(C)p.r(U)p.r(U)p.r(C)p.[fl2r](G)p.r(U)p.r(C)p.r(U)p.r(U)p.r(C)p.[fl2r](G)p.[fl2r](G)p.r(T)p.r(T)}$$$RNA1{StrandType:ss}|RNA2{StrandType:as}$")
23
>>> test_value("RNA1{[hna](G)p.[hna](A)p.[hna](C)p.r(G)p.r(U)p.r(A)p.r(A)p.r(A)p.r(C)p.r(G)p.r(G)p.r(C)p.r(C)p.r(A)p.r(C)p.r(A)p.r(A)p.[hna](G)p.[hna](U)p.[hna](U)p.d(T)}|RNA2{[fl2r](A)p.m(C)p.[fl2r](U)p.m(U)p.[fl2r](G)p.m(U)p.[fl2r](G)p.m(G)p.[fl2r](C)p.m(C)p.[fl2r](G)p.m(U)p.[fl2r](U)p.m(U)p.[fl2r](A)p.m(C)p.[fl2r](G)p.m(U)p.[fl2r](C)p.m(G)p.[fl2r](C)}$$$RNA1{StrandType:ss}|RNA2{StrandType:as}$")
81.8
>>> test_value("RNA1{m(G)p.r(A)p.m(A)p.r(U)p.m(A)p.r(A)p.m(C)p.r(C)p.m(U)p.r(G)p.m(A)p.r(A)p.m(C)p.r(G)p.m(U)p.r(C)p.m(A)p.r(C)p.m(C)p.r(T)p.r(T)}|RNA2{r(G)p.r(G)p.r(U)p.r(G)p.m(A)p.r(C)p.r(G)p.r(U)p.r(U)p.r(C)p.m(A)p.r(G)p.r(G)p.r(U)p.r(U)p.m(A)p.r(U)p.r(U)p.r(C)p.r(T)p.r(T)}$$$RNA1{StrandType:ss}|RNA2{StrandType:as}$")
21
